- MEASUREMENT TARGET: Epidermal growth factor receptor (Homo sapiens, UniProt P00533)
- Sequence (P00533 whole entry): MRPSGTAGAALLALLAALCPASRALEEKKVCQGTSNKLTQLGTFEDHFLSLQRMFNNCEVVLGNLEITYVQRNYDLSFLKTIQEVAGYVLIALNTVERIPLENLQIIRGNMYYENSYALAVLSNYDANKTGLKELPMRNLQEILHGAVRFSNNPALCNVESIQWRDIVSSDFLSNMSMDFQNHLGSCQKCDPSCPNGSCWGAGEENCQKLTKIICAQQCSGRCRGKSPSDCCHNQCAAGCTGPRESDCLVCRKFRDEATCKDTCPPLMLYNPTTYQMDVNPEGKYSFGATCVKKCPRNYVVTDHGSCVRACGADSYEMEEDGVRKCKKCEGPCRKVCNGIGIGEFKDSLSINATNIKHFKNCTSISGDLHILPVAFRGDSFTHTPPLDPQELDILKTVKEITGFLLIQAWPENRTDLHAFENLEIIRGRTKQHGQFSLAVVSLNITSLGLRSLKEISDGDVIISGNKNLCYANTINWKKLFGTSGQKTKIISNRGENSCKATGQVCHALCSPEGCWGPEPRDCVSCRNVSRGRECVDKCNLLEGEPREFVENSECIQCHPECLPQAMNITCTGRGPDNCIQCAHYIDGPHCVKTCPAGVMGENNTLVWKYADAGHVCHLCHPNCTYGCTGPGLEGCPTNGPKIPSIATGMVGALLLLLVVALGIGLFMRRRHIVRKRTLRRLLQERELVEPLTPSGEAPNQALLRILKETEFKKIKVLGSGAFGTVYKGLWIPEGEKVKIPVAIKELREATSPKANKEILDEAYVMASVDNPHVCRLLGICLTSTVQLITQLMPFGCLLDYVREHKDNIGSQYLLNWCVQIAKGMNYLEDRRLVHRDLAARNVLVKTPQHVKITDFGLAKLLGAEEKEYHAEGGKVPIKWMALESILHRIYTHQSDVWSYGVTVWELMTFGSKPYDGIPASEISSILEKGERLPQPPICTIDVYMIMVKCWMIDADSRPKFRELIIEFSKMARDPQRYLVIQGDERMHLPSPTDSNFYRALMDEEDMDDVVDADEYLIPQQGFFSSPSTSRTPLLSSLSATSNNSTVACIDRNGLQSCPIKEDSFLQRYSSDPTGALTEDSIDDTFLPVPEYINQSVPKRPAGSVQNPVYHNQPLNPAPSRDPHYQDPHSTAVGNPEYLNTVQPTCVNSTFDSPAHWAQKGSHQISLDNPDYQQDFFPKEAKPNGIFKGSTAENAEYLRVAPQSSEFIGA
- ASSAY PROTOCOL: Inhibition of EGFR (unknown origin) up to 10 uM using biotin-labelled peptide as substrate preincubated for 2 hrs followed by substrate addition and measured after 30 mins by HTRF FRET assay
Activity calls are given as the source filed them. The rule behind the calls is not given here.
PROPERTY: inhibition

Record excerpt, results attached:
                                   compound  observed
0  C=CC(=O)Nc1cc(Oc2nc(Nc3ccc(N4CCN(C)CC4)cc3)ccc2N2CCCCC2)ccc1C  inactive
1  C=CC(=O)Nc1cc(Oc2nc(Nc3ccc(N4CCN(C)CC4)cc3OC)ccc2-c2ccccc2)ccc1C  inactive
2  C=CC(=O)Nc1cc(Oc2nc(Nc3ccc(N4CCN(C)CC4)cc3OC)ccc2N2CCCC2)ccc1C(F)(F)F  inactive
3  C=CC(=O)Nc1cc(Oc2nc(Nc3ccc(N4CCN(C)CC4)cc3OC)ccc2N2CCCCC2)ccc1C  inactive
4  C=CC(=O)Nc1cccc(Oc2nc(Nc3ccc(N4CCN(C)CC4)cc3OC)ccc2Cl)c1  inactive
5  C=CC(=O)Nc1cc(Oc2nc(Nc3ccc(N4CCN(C)CC4)cc3OC)ccc2N2CCCC(O)C2)ccc1C (racemic)  inactive
6  C=CC(=O)Nc1cc(Oc2nc(Nc3ccc(N4CCN(C)CC4)cc3OC)ccc2N2CCCC2)ccc1C  inactive

# next compound below
Prompt: Recorded inhibition for C=CC(=O)Nc1cc(Oc2nc(Nc3ccc(N4CCN(C)CC4)cc3OC)ccc2N2CCOCC2)ccc1C , please?
Response: inactive

* * *

- ASSAY PROTOCOL: Tmax in C57BL/6 mouse at 10 mg/kg, ip by LC-MS/MS analysis
- Type: ADME, organism-based
- TEST SETTINGS: in vivo
PROPERTY: Tmax (h)
The response must be a number in h with no trailing unit.

Prompt: Recorded Tmax for C=CC(=O)Nc1cc(Oc2nc(Nc3ccc(N4CCN(C)CC4)cc3OC)ccc2N2CCCCC2)ccc1C , please?
Response: 0

* * *

- ASSAY PROTOCOL: Half life in C57BL/6 mouse at 2 mg/kg, iv by LC-MS/MS analysis
- Type: ADME, organism-based
- TEST SETTINGS: in vivo
PROPERTY: half-life (h)
The response must be a number in h with no trailing unit.

Prompt: Recorded half-life for C=CC(=O)Nc1cc(Oc2nc(Nc3ccc(N4CCN(C)CC4)cc3OC)ccc2N2CCCCC2)ccc1C , please?
Response: 1.62

* * *

- ASSAY PROTOCOL: Oral bioavailability in C57BL/6 mouse at 10 mg/kg by LC-MS/MS analysis
- Type: ADME, organism-based
- TEST SETTINGS: in vivo
PROPERTY: bioavailability (%)
The response must be a number in % with no trailing unit.

Prompt: Recorded bioavailability for C=CC(=O)Nc1cc(Oc2nc(Nc3ccc(N4CCN(C)CC4)cc3OC)ccc2N2CCCCC2)ccc1C , please?
Response: 22.3

* * *

- ASSAY PROTOCOL: Tmax in C57BL/6 mouse at 10 mg/kg, po by LC-MS/MS analysis
- Format: ADME, organism-based
- TEST SETTINGS: in vivo
PROPERTY: Tmax (min)
The response must be a number in min with no trailing unit.

Prompt: Recorded Tmax for C=CC(=O)Nc1cc(Oc2nc(Nc3ccc(N4CCN(C)CC4)cc3OC)ccc2N2CCCCC2)ccc1C , please?
Response: 30

Where these numbers come from: ChEMBL document CHEMBL4396895
